parameterMeasured: kcat/Km for cleavage of V1-5GAG (50 nM), time course with versikine ELISA (M⁻¹ s⁻¹)
Give your result in M⁻¹ s⁻¹ as a bare value.

Q: Lab note: need kcat/Km for cleavage of V1-5GAG (50 nM), time course with versikine ELISA with Versican V1-5GAG (truncated V1, residues 21-694) (UniProt P13611) for entry ADAMTS1 variant MD (truncated after the disintegrin-like domain) (domain or fragment) , please look it up.
A: 61

Q: Lab note: need kcat/Km for cleavage of V1-5GAG (50 nM), time course with versikine ELISA with Versican V1-5GAG (truncated V1, residues 21-694) (UniProt P13611) for entry ADAMTS1 variant MDT (truncated after the central TSR motif) (domain or fragment) , please look it up.
A: 66

Q: Lab note: need kcat/Km for cleavage of V1-5GAG (50 nM), time course with versikine ELISA with Versican V1-5GAG (truncated V1, residues 21-694) (UniProt P13611) for entry ADAMTS1 variant MDTC (truncated after the cysteine-rich domain) (domain or fragment) , please look it up.
A: 260

Q: Lab note: need kcat/Km for cleavage of V1-5GAG (50 nM), time course with versikine ELISA with Versican V1-5GAG (truncated V1, residues 21-694) (UniProt P13611) for entry ADAMTS1 variant MDTCS (truncated after the spacer domain) (domain or fragment) , please look it up.
A: 7300

* * *

testedSystem: Quenched-fluorescent peptide substrate fluorescein-5(6)-carbonyl-Ala-Glu-Leu-[…]-Gly-Arg-Pro-Ile-Ser-Ile-Ala-Lys(5(6)-TAMRA)
parameterMeasured: kcat/Km for proteolysis of the QF peptide
Please provide the amount together with its unit, number first.

Q: Fill in: kcat/Km for proteolysis of the QF peptide of ADAMTS1 variant MDT (truncated after the central TSR motif) (domain or fragment) is ___
A: 6200 M⁻¹ s⁻¹

Q: Fill in: kcat/Km for proteolysis of the QF peptide of ADAMTS1 variant MDTC (truncated after the cysteine-rich domain) (domain or fragment) is ___
A: 4500 M⁻¹ s⁻¹

Q: Fill in: kcat/Km for proteolysis of the QF peptide of ADAMTS1 variant MDTCS (truncated after the spacer domain) (domain or fragment) is ___
A: 7600 M⁻¹ s⁻¹

Q: Fill in: kcat/Km for proteolysis of the QF peptide of ADAMTS1 variant MD (truncated after the disintegrin-like domain) (domain or fragment) is ___
A: 6100 M⁻¹ s⁻¹

Origin of measurements: paper PMC10033314
